protocolDetails: Observed Kp,uu,brain and Kp,uu,CSF in monkeys
experimentalConditions: cynomolgus monkey, CSF (lumbar) / plasma, intravenous

| compound | Kp uu at 6 h |
| --- | --- |
| NCC(CC(=O)O)c1ccc(Cl)cc1 (stereo not shown) | 0.03 |

* * *

protocolDetails: Observed Kp,uu,brain and Kp,uu,CSF in monkeys
experimentalConditions: monkey, lumbar CSF; *1 data internally obtained

| smilesStr | Kp,uu,CSF Monkey |
| --- | --- |
| CNC(=O)c1cc(Oc2ccc(NC(=O)Nc3ccc(Cl)c(C(F)(F)F)c3)cc2)ccn1 | 0.0798 |
| O=c1c(-c2ccc(O)cc2)coc2cc(O)cc(O)c12 | 0.0369 |
| O=C(O)C[C@H](O)C[C@H](O)/C=C/c1c(C2CC2)nc2ccccc2c1-c1ccc(F)cc1 | 0.129 |
| Cc1c(O)cccc1C(=O)N[C@@H](CSc1ccccc1)[C@H](O)CN1C[C@H]2CCCC[C@H]2C[C@H]1C(=O)NC(C)(C)C | 0.640 |

* * *

assayTarget: MDR1 (Homo sapiens, UniProt P08183)
Sequence (P08183 whole entry): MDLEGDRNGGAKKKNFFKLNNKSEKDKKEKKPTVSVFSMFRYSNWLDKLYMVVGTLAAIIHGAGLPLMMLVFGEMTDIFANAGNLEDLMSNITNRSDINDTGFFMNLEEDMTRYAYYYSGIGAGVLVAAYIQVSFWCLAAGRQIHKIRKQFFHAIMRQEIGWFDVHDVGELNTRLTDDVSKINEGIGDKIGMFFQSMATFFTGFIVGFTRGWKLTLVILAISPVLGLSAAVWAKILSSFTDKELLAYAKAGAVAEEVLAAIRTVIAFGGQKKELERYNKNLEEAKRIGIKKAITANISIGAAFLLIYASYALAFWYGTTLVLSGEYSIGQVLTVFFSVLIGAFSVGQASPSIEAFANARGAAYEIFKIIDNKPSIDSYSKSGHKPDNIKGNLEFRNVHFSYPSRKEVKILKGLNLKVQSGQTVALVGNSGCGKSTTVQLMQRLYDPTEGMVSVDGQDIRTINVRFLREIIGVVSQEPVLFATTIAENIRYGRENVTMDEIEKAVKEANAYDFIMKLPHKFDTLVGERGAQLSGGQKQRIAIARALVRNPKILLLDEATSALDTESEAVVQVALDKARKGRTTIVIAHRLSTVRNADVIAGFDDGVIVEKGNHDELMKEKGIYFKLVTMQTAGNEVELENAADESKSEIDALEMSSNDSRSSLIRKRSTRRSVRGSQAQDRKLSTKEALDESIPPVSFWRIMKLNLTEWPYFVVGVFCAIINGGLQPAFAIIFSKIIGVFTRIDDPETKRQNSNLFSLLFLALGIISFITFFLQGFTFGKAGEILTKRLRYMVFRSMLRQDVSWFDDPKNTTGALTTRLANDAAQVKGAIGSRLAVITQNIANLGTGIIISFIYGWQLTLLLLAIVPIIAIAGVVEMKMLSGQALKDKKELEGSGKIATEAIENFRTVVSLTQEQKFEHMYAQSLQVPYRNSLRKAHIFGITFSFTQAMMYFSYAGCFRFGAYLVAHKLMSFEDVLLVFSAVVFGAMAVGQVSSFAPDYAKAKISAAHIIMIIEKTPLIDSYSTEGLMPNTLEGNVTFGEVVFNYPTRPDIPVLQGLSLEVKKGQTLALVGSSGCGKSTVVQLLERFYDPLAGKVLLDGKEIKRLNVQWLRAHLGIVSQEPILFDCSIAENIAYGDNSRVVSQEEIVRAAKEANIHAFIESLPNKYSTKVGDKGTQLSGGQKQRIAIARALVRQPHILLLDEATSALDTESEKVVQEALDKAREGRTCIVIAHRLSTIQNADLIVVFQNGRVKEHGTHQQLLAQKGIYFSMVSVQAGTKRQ
protocolDetails: in vitro
experimentalConditions: dog, MDCK-MDR1, pH 7.4
Output condition met for records whose efflux ratio at 1 h, 1 μM is lower than 6, condition not met for records at or above 6.

| molecule | class |
| --- | --- |
| CN(Cc1cnc2nc(N)nc(N)c2n1)c1ccc(C(=O)N[C@@H](CCC(=O)O)C(=O)O)cc1 [Methotrexate] | condition met |
| C#Cc1cccc(Nc2ncnc3cc(OCCOC)c(OCCOC)cc23)c1 | condition not met |
| CC(C)NCC(O)COc1cccc2[nH]ccc12 (centres unmarked) | condition met |
| Nc1ccc(S(=O)(=O)c2ccc(N)cc2)cc1 | condition met |
| COc1ccc(C(CN(C)C)C2(O)CCCCC2)cc1 (centres unmarked) | condition not met |

* * *

protocolDetails: Observed Kp,uu,brain and Kp,uu,CSF in monkeys
experimentalConditions: monkey; *1 data internally obtained
Experimental: Monkey experiments were conducted internally or at the Drug Safety Research Laboratories in Shin Nippon Biomedical Laboratories via consignment to Axcelead Drug Discovery Partners. […] Detailed dosage regimen for each compound is summarized in Supplemental Table 3. […] Each cassette was assigned to a separate group of monkeys. […] The residue was reconstituted in dilution solution (mobile phase A/B (7:3, v/v)), and the supernatant was analyzed by LC-MS/MS. […]

| compound | Kp,uu,brain Monkey |
| --- | --- |
| O=C(O)C[C@H](O)C[C@H](O)/C=C/c1c(C2CC2)nc2ccccc2c1-c1ccc(F)cc1 [Pitavastatin] | 0.242 |
| CNC(=O)c1cc(Oc2ccc(NC(=O)Nc3ccc(Cl)c(C(F)(F)F)c3)cc2)ccn1 [Sorafenib] | 0.0199 |
| O=c1c(-c2ccc(O)cc2)coc2cc(O)cc(O)c12 [Genistein] | 0.0128 |
| Cc1c(O)cccc1C(=O)N[C@@H](CSc1ccccc1)[C@H](O)CN1C[C@H]2CCCC[C@H]2C[C@H]1C(=O)NC(C)(C)C [Nelfinavir] | 0.008 |

* * *

Catalogue of compounds with associated Kp uu at 6 h
protocolDetails: in vivo
experimentalConditions: cynomolgus monkey, in vivo, Kp,uu,brain Monkey

| smilesStr | Kp uu at 6 h |
| --- | --- |
| COc1cc2nc(N3CCN(C(=O)c4ccco4)CC3)nc(N)c2cc1OC | 0.253 |
| Nc1ccc(S(=O)(=O)c2ccc(N)cc2)cc1 | 1.02 |

* * *

protocolDetails: in vivo
experimentalConditions: cynomolgus monkey, in vivo, Kp,uu,CSF Monkey

| compound | Kp uu at 6 h |
| --- | --- |
| COc1cc2nc(N3CCN(C(=O)c4ccco4)CC3)nc(N)c2cc1OC [Prazosin] | 0.289 |
| Nc1ccc(S(=O)(=O)c2ccc(N)cc2)cc1 [Dapsone] | 0.661 |
